All values here come from patent US20230091225A1.

Biological target: androgen receptor (AR) (Homo sapiens)
Sequence (P10275 1-920): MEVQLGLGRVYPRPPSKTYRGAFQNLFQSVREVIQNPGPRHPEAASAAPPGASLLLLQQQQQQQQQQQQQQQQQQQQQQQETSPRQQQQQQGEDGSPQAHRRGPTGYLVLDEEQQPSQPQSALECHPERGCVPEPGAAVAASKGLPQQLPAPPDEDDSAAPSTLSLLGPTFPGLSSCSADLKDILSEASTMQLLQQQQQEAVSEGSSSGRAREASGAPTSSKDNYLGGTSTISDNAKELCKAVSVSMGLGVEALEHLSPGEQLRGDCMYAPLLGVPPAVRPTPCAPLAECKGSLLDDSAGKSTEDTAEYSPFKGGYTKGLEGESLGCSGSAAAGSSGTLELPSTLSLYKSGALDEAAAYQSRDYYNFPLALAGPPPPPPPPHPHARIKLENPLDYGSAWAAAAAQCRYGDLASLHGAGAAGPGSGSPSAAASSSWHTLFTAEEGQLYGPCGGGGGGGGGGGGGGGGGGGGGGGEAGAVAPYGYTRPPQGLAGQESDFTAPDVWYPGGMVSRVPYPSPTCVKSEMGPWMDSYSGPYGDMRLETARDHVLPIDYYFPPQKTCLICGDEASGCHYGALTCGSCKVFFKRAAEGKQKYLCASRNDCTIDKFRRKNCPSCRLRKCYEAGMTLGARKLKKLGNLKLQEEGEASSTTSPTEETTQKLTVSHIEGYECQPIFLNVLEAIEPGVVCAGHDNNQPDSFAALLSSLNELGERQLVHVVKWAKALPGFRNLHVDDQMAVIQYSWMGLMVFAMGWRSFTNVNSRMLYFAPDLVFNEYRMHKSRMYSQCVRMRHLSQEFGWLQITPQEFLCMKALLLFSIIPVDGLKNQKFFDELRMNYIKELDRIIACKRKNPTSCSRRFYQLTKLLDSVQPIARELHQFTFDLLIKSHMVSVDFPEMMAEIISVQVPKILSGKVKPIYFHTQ
Test: Degradation of androgen receptor (AR) protein in VCaP cells by ELISA
Format: cell-based
Conditions: AR degradation, VCaP cells, 16 h, ELISA, Table 3-1; read-out: DC50
measurement.type: DC50

compound | measurement.type | result
CC1(C)[C@H](Oc2ccc(C#N)c(Cl)c2)C(C)(C)[C@H]1N1Cc2nc(C#CC3CCC(N4CC5(CCN(c6ccc7c(c6)C(=O)N(C6CCC(=O)NC6=O)C7=O)C5)C4)CC3)ccc2C1=O (some centres unmarked) [Compound 369] | DC50 | 0.01 to 0.1 µM
CC1(C)[C@H](Oc2ccc(C#N)c(Cl)c2)C(C)(C)[C@H]1N1Cc2nc(C#C[C@H]3CC[C@H](N4CCN(c5cc6c(cc5F)C(=O)N(C5CCC(=O)NC5=O)C6=O)CC4)CC3)cnc2C1=O (some centres unmarked) | DC50 | 0.01 to 0.1 µM
N#Cc1ccc(O[C@H]2CC[C@H](NC(=O)c3ccc(N4CCC5(CC4)CN(CC4CCN(c6ccc7c(c6)C(=O)N(C6CCC(=O)NC6=O)C7=O)CC4)C5)nn3)CC2)cc1Cl (some centres unmarked) | DC50 | < 0.01 µM
N#Cc1ccc(O[C@H]2CC[C@H](NC(=O)c3cnc(N4CC5(CCN(C6CCN(c7cc8c(cc7F)C(=O)N(C7CCC(=O)NC7=O)C8=O)CC6)C5)C4)cn3)CC2)cc1Cl (some centres unmarked) | DC50 | < 0.01 µM
CC1(C)[C@H](Oc2ccc(C#N)c(Cl)c2)C(C)(C)[C@H]1N1Cc2nc(C#CC3CCC(N4CCC5(CCN(c6ccc7c(c6)C(=O)N(C6CCC(=O)NC6=O)C7=O)C5)C4)CC3)ccc2C1=O (some centres unmarked) [Compound 364] | DC50 | < 0.01 µM
